Hey, just so you know, these numbers are from PubChem BioAssay (NCATS).

assay: Quantitative highthroughput screen to assess conditional lethalithy of NOMO1 cells grown in RPMI1640 with untreated serum (RPMI+s) (AID 1963876); conditions: NOMO1 AML cells in RPMI+serum, CellTiter-Glo viability, 48 h; series mostly up to 45.8 µM; note: nearly all actives have a fitted effect of over 35% in size;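 for viability: 100% = DMSO wells and 0% = empty wells without cells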
Inconclusive results are not listed. Activity calls are given as the source filed them. Calls come from the whole dose curve; as a rule, active = well fitted cell-killing curve with a large enough effect; inconclusive = small, poorly fitted or top-dose-only effect; inactive = flat fitted curve, though single readings scatter.
Answer with one of the outcomes y for active, n for inactive

Check out these entries, answers already filled in.
>>> category("Cc1ccc(C(=O)Nc2cccc(C(F)(F)F)c2)cc1-c1ccc2nc(NCCN3CCOCC3)ncc2c1")
"y"
>>> category("CC1(C)SCCN(S(=O)(=O)c2ccc(OCC#CCO)cc2)[C@@H]1C(=O)NO")
"n"

q: Test call, this compound: "CC1(C)O[C@@H]2C[C@@H]3[C@H]4C[C@@H](F)C5=CC(=O)C=C[C@]5(C)[C@@]4(F)[C@@H](O)C[C@]3(C)[C@]2(C(=O)CO)O1"
a: n

q: Test call, this compound: "CSc1cccc(Nc2ncc3cc(-c4c(Cl)cccc4Cl)c(=O)n(C)c3n2)c1"
a: n

q: Test call, this compound: "COC1=C2C[C@@H](C)C[C@H](OC)[C@@H](O)[C@@H](C)C=C(C)[C@H](OC(N)=O)[C@@H](OC)C=CC=C(C)C(=O)NC(=CC1=O)C2=O"
a: y

q: Test call, this compound: "O=C(CCN1CCN(C(=O)OCc2cc(Cl)cc(Cl)c2)CC1)c1ccc2[nH]c(=O)oc2c1"
a: n

q: Test call, this compound: "Nc1ccc(-c2ccc3ncc4ccc(=O)n(-c5cccc(C(F)(F)F)c5)c4c3c2)cn1"
a: y

q: Test call, this compound: "COc1ccc(Cn2ccc3ccc(C(=O)NO)cc32)cc1"
a: n

* * *

experiment: Viability qHTS for spleen associated tyrosine kinase inhibitor (SYKi) naive MV4-11 cells (AID 1963823); settings: MV4-11 AML viability, CellTiter-Glo luminescence, 72 h; series mostly up to 45 µM; note: nearly all actives have a fitted effect of over 40% in size
Inconclusive results are not listed. Calls of active or inactive are those of the source. Calls follow the shape of the dose curve; as a rule, active = well fitted cell-killing curve with a large enough effect; inconclusive = small, poorly fitted or top-dose-only effect, or effect the other way; inactive = no such curve, though single readings can be large or run the other way.
Answer with one of the outcomes 1.0 for active, 0.0 for inactive

Check out these entries, answers already filled in.
>>> category("CC12CCC(OC3OC(CO)C(O)C(OC4OC(CO)C(O)C(O)C4O)C3O)CC1CCC1C2CCC2(C)/C(=C3/COC(=O)C3)CCC12O (stereo not given)")
0.0
>>> category("COc1cc2ncnc(Nc3cccc(O)c3)c2cc1OC")
1.0
>>> category("C=CC1(C)CC(OC(=O)C(=C)C(O)COC(C)=O)C(C(=C)C(=O)OC)C(O)C1C(=C)CO (stereo not given)")
1.0
>>> category("Nc1nc(Nc2ccc3c(c2)CCC(N2CCCC2)CC3)nn1-c1cc2c(nn1)-c1ccccc1CCC2 (stereo not given)")
1.0
>>> category("Cc1cn([C@@H]2C[C@@H](O)[C@H](CO)O2)c(=O)[nH]c1=O")
0.0
>>> category("Oc1cc2c(cc1O)C1c3ccc(O)c(O)c3OCC1(O)C2 (stereo not given)")
1.0

q: Test call, this compound: COc1cc(-c2ccc(O)cc2)c(OC)c(O)c1C1=CC(=O)OC1CC(=O)O (stereo not given)
a: 0.0

q: Test call, this compound: COc1cc(C2c3cc(O)c(OC)cc3CC(CO)C2CO)ccc1O (stereo not given)
a: 0.0

q: Test call, this compound: "Cc1nc(CNc2ncnc3ccc(-c4ccc5c(c4)OCO5)cc23)cs1"
a: 1.0
